Molecular target: Follistatin-related protein 3 (Homo sapiens) (UniProt O95633)
Sequence (O95633 whole entry, looked up): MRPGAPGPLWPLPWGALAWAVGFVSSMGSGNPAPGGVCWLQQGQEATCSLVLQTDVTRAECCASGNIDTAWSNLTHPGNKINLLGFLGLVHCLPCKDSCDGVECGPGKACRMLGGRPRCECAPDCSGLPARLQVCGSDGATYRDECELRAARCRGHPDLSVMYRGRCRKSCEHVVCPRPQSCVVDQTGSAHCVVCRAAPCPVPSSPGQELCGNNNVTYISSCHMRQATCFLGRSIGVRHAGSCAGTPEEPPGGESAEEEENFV
Assay: compounds binding follistatin-related protein 3 – biochemical, small-molecule microarray, 635 nm fluorescence, primary screen (AID 1105);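 also: score merges emission near 667 nm and signal to noise per printed spot across three slides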
Details: FSTL3 binding, higher = more signal
Assign class by composite z-score: not lower than 1 means 1; lower than 1 means 0.

>  <molecule>
COCCOC(=O)N1C(=O)[C@@]2(c3cc(C#CC4=CCCCC4)ccc31)[C@H](c1ccccc1OCCO)N1[C@H](c3ccccc3)[C@H](c3ccccc3)OC(=O)[C@H]1[C@@H]2C(=O)N1CCN(c2ncccn2)CC1

>  <targetOfAssay>
Follistatin-related protein 3 (Homo sapiens) (UniProt O95633)

>  <categoryLabel>
1

$$$$
>  <molecule>
CC(C)C[C@@H]1NC(=O)[C@@H]2C[C@H](C(=O)NCCCCCCN)[C@H](c3cccc(OCCO)c3)N2C1=O

>  <targetOfAssay>
Follistatin-related protein 3 (Homo sapiens) (UniProt O95633)

>  <categoryLabel>
1

$$$$
>  <molecule>
Cc1ccc(S[C@]2(C(=O)NCCN3CCOCC3)CC(=O)N(Cc3ccccc3Cl)[C@@H]2c2ccc(CO)cc2I)cc1

>  <targetOfAssay>
Follistatin-related protein 3 (Homo sapiens) (UniProt O95633)

>  <categoryLabel>
0

$$$$
>  <molecule>
[N-]=[N+]=Nc1ccccc1[C@H]1OC(c2ccc(OCCCO)cc2)=N[C@@]1(Cc1ccccc1)C(=O)NCCN1CCOCC1

>  <targetOfAssay>
Follistatin-related protein 3 (Homo sapiens) (UniProt O95633)

>  <categoryLabel>
1

$$$$
>  <molecule>
CC(CO)N1C(=O)[C@@H]2[C@H]3C(=O)OCC=C[C@H]3OC23C=CCN(Cn2nnc4ccccc42)C(=O)[C@@H]13 (some centres not stated)

>  <targetOfAssay>
Follistatin-related protein 3 (Homo sapiens) (UniProt O95633)

>  <categoryLabel>
0

$$$$
>  <molecule>
COc1ccc([Si](C)(C)[C@@H]2[C@@H](CC(=O)N3CCC[C@H]3CO)O[C@]3(C(=O)N(Cc4cccc(N5C(=O)COc6ccccc65)c4)c4ccccc43)[C@H]2C)cc1

>  <targetOfAssay>
Follistatin-related protein 3 (Homo sapiens) (UniProt O95633)

>  <categoryLabel>
0

$$$$
>  <molecule>
COCCOC(=O)N1C(=O)[C@@]2(c3ccccc31)[C@H](C(=O)NC[C@H](O)c1ccccc1)[C@H]1C(=O)O[C@H](c3ccccc3)[C@H](c3ccccc3)N1[C@@H]2c1ccc(O)cc1

>  <targetOfAssay>
Follistatin-related protein 3 (Homo sapiens) (UniProt O95633)

>  <categoryLabel>
1

$$$$

# credit: PubChem BioAssay
